Hi there, I'd appreciate the recorded EC50 for every entry that follows.
Tested on: herpes simplex virus type 1 (HSV-1)
Assay: microbe, parasite or virus in culture
Type: cell-based
Settings: Human alphaherpesvirus 1, HEL, read-out: Antiviral EC50 HSV‐1
Expressed in nM, but write only the number.

What value of EC50 has been reported for the following molecule? Nc1ccn(C[C@@H](CO)OCP(=O)(O)O)c(=O)n1
2400

Param item: Nc1nc2c(ncn2COCCO)c(=O)[nH]1
2400

====

Tested on: HeLa cells
Settings: human
Hi there, I'd appreciate the recorded CC50 for every entry that follows.

What value of CC50 has been reported for the following compound? CC(=O)NC1C(OC2c3ccc(c(Cl)c3)Oc3cc4cc(c3O)Oc3ccc(cc3Cl)CC3NC(=O)C(n5cc(COCCOCCOCCOCCOCCCC(F)(F)C(F)(F)C(F)(F)C(F)(F)C(F)(F)C(F)(F)C(F)(F)C(F)(F)F)nn5)c5ccc(O)c(c5)Oc5cc(O)cc(c5)C(NC3=O)C(=O)NC4C(=O)NC3C(=O)NC2C(=O)NC(C(=O)O)c2cc(O)cc(O)c2-c2cc3ccc2O)OC(CO)C(O)C1O (stereo not drawn) [Compound 18]
41 µM

Param item: CC(=O)NC1C(OC2c3ccc(c(Cl)c3)Oc3cc4cc(c3O)Oc3ccc(cc3Cl)CC3NC(=O)C(n5cc(COCCOCCOCCOCCOCCCC(F)(F)C(F)(F)C(F)(F)C(F)(F)F)nn5)c5ccc(O)c(c5)Oc5cc(O)cc(c5)C(NC3=O)C(=O)NC4C(=O)NC3C(=O)NC2C(=O)NC(C(=O)O)c2cc(O)cc(O)c2-c2cc3ccc2O)OC(CO)C(O)C1O (stereo not drawn) [Compound 16]
> 100 µM

Param item: CC(=O)NC1C(OC2c3ccc(c(Cl)c3)Oc3cc4cc(c3O)Oc3ccc(cc3Cl)CC3NC(=O)C(n5cc(COCCOCCCC(F)(F)C(F)(F)C(F)(F)C(F)(F)C(F)(F)C(F)(F)C(F)(F)C(F)(F)F)nn5)c5ccc(O)c(c5)Oc5cc(O)cc(c5)C(NC3=O)C(=O)NC4C(=O)NC3C(=O)NC2C(=O)NC(C(=O)O)c2cc(O)cc(O)c2-c2cc3ccc2O)OC(CO)C(O)C1O (stereo not drawn) [Compound 17]
> 100 µM

====

Test system: MDCK cells
Settings: dog
QUANTITY_NAME: CC50 (µM)
Expressed in µM, but write only the number.

What value of CC50 has been reported for the following compound? CC(C)C[C@H](C(=O)N[C@H]1C(=O)N[C@@H](CC(N)=O)C(=O)N[C@H]2C(=O)N[C@H]3C(=O)N[C@H](C(=O)N[C@H](C(=O)O)c4cc(O)cc(O)c4-c4cc3ccc4O)[C@H](O)c3ccc(c(Cl)c3)Oc3cc2cc(c3O)Oc2ccc(cc2Cl)[C@H]1O)n1cc(COCCOCCOCCOCCOCCCC(F)(F)C(F)(F)C(F)(F)C(F)(F)C(F)(F)C(F)(F)C(F)(F)C(F)(F)F)nn1
0.8

Param item: CC(=O)NC1C(OC2c3ccc(c(Cl)c3)Oc3cc4cc(c3O)Oc3ccc(cc3Cl)CC3NC(=O)C(n5cc(COCCOCCCC(F)(F)C(F)(F)C(F)(F)C(F)(F)C(F)(F)C(F)(F)C(F)(F)C(F)(F)F)nn5)c5ccc(O)c(c5)Oc5cc(O)cc(c5)C(NC3=O)C(=O)NC4C(=O)NC3C(=O)NC2C(=O)NC(C(=O)O)c2cc(O)cc(O)c2-c2cc3ccc2O)OC(CO)C(O)C1O (stereo not drawn)
44

Param item: CC(=O)NC1C(OC2c3ccc(c(Cl)c3)Oc3cc4cc(c3O)Oc3ccc(cc3Cl)CC3NC(=O)C(n5cc(COCCOCCOCCOCCOCCCC(F)(F)C(F)(F)C(F)(F)C(F)(F)F)nn5)c5ccc(O)c(c5)Oc5cc(O)cc(c5)C(NC3=O)C(=O)NC4C(=O)NC3C(=O)NC2C(=O)NC(C(=O)O)c2cc(O)cc(O)c2-c2cc3ccc2O)OC(CO)C(O)C1O (stereo not drawn)
97
